Measured self-cleavage values are reported for all entries that follow.
B1: CPEB3 Ribozyme (parent)
chain: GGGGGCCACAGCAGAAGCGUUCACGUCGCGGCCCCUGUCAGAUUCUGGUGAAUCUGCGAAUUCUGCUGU

# Variants of: B1
# assay explanation: self-cleavage, relative activity (ratio to wild type); higher = more cleavage; co-transcriptional
measured parameter: self-cleavage

A16U U36G = 0.111
G11C C33A = 0.547
C27G U44C = 0.145
C7G G58A = 0.281
G28U = 0.178
A42C G58A = 0.925
C45A C57U = 0.374
C12A C63A = 0.336
G3U U67G = 0.312
G5U C57G = 0.115
G48C U55C = 0.963
